Source: patent US20160244437A1

system: human and animal plasma; test: Determination of anticoagulatory activity: activated partial thromboplastin time (aPTT) in plasma; conditions: concentration of test substance which brings about a 1.5-fold extension of the aPTT; plasma in vitro, C.K. Prest kit
Structures can show the parent of a compound that is named as a salt.
Below, each entry is listed alongside its reported aPTT.
The reply should be a number in µmol/L, with the unit left off.

compound="Cc1nc(N)ccc1-c1cccc(C[C@H](NC(=O)[C@H]2CC[C@H](CN)CC2)C(=O)Nc2ccc(-c3nnn[nH]3)cc2)c1 [Example 66, hydrochloride]" unit_abbrev=µmol/L value_reported=0.12
compound="Cc1ccc(S(=O)(=O)NCc2ccccc2)cc1-c1cccc(C[C@H](NC(=O)[C@H]2CC[C@H](CN)CC2)C(=O)Nc2ccc(-c3n[nH]c(=O)[nH]3)cc2)c1 [Example 13, hydrochloride]" unit_abbrev=µmol/L value_reported=0.47
compound="COc1ccc(C[C@H](NC(=O)[C@H]2CC[C@H](CN)CC2)C(=O)Nc2ccc(-c3nn[nH]n3)cc2)cc1-c1ccc(C(=O)NCCN)cc1C [Example 58, hydrochloride]" unit_abbrev=µmol/L value_reported=0.3
compound="CN(C)CCNC(=O)c1cccc(-c2cccc(C[C@H](NC(=O)[C@H]3CC[C@H](CN)CC3)C(=O)Nc3ccc(-c4nnn[nH]4)cc3)c2)c1 [Example 39, hydrochloride]" unit_abbrev=µmol/L value_reported=0.22

Q) If you can, please state the reported aPTT value of Cc1ccc(C[C@H](NC(=O)[C@H]2CC[C@H](CN)CC2)C(=O)Nc2ccc(-c3nnn[nH]3)cc2)cc1-c1cccc(C(=O)N2CCOCC2)c1 [Example 17, hydrochloride] .
A) 0.19
